Give measured inhibition for each item. Keep answers brief.
method description: A qHTS for Small Molecule Inhibitors of Shiga Toxin
assay conditions: Vero cells, Shiga toxin protein synthesis inhibition reporter; at 38.7 µM, hits give high values
In all, about 290,000 compounds went through this assay and about 27,000 (9.3%) were called active. The sample as a whole holds a higher share of actives than the screen did.

These solved cases illustrate the format of a correct answer.
In [3]: df
Out[3]:
                                   molecule  value_type  recorded_measurement
0  COc1cccc(N(CC(=O)NC2CCCC2)C(=O)Cn2nnc(-c3ccc(C)o3)n2)c1  inhibition      5.05% (inactive)
1  COc1ccc(S(=O)(=O)N2CCC(C(=O)N3CCCC3)CC2)cc1C  inhibition     -7.97% (inactive)
2  COc1ccc(N(CC(=O)Nc2cccc3ccccc23)S(C)(=O)=O)c(OC)c1  inhibition     -3.17% (inactive)

Dear colleague, could you send me inhibition for each of the items below? Thanks.
1. COc1ccc2nc(C)cc(Nc3cccc(C(=O)O)c3)c2c1
2. CCCCN1Cc2c(nc3cc(-c4ccccc4)[nH]n3c2=O)C1=O
3. Cc1ccc(NC(=O)NCC(c2cccnc2)N2CCOCC2)cc1 (configuration not stated)
4. Cc1nc2nc[nH]n2c(=O)c1C/C=C/c1ccccc1

## Result
1: -3.88% (inactive); 2: 2.49% (inactive); 3: -5.81% (inactive); 4: -3.93% (inactive)

Batch: inhibition for all items listed.
1. O=S(=O)(c1ccc(Cl)cc1)c1nc(-c2ccccc2F)oc1NCCN1CCOCC1
2. C/C(=N/NC(=O)c1ccc(NC(=O)c2ccc(F)cc2)cc1)c1ccccc1
3. Cc1cc(=O)n2[nH]c(-c3sccc3-n3c(C)ccc3C)cc2n1

## Result
["-6.01% (inactive)", "30% (inactive)", "34.4% (inactive)"]

Respectfully, I request inhibition for each entry included below.
1. Cc1ccc(NC(=O)Nc2cccnc2)cc1
2. COc1cccc(C(=O)N/N=C(\C)c2cccc(NC(=O)c3ccc(F)cc3)c2)c1OC

## Result
["29% (active)", "77.4% (active)"]

For every record below, what is its inhibition?
1. COc1ccc(OCCCCN2CCC(C)CC2)cc1
2. Cc1nn(Cc2ccc(Cl)cc2)c(Cl)c1/C=N/NC(=O)c1cccnc1
3. O=[N+]([O-])c1ccccc1/C=C/CN1CCCC(CO)C1 (configuration not stated)
4. O=C(NCc1cccnc1)c1ccccc1NC(=O)c1c(F)cccc1F
5. Cc1nn(-c2ccccc2)c2c1c(C)c(CCC(=O)NCC1CCCO1)c(=O)n2C (configuration not stated)
6. N#Cc1c(-c2ccccc2)nc(SCc2cccc(C(F)(F)F)c2)[nH]c1=O
7. C/C(=C/c1ccccc1)C(=O)N1CCN(c2ccccc2)CC1

## Result
-6% (inactive)
-8.32% (inactive)
-4.92% (inactive)
-17.6% (inactive)
-2.28% (inactive)
-1.96% (inactive)
18.9% (inactive)

###

method description: A qHTS for Small Molecule Inhibitors of Shiga Toxin
assay conditions: Vero cells, Shiga toxin protein synthesis inhibition reporter; at 38.7 µM
Out of some 290,000 compounds screened, about 27,000 (9.3%) were called active. Cut-off read from the data, not from the text of the source: active = inhibition mostly above about 28% (no sharp cut-off); inactive = mostly below about 43%. What follows is part of a selection rich in actives, with near analogues and random picks from the rest.
Select the correct class. Options are 1.0 for active, 0.0 for inactive and nothing else.

Examples from the recorded data:
                                   molecule  label
0  COc1cc2c(C(=O)N(C)c3cc(Cl)ccc3OC)cn(C)c(=O)c2cc1OC    0.0
1                O=C(Nc1ccncc1)c1c(F)cccc1F    0.0
2  Cc1ccc(OCCCC(=O)Nc2ccc(S(=O)(=O)Nc3cc(C)nc(C)n3)cc2)cc1    0.0
3    COc1ccc(C2=Nn3c(nnc3-c3ccccc3O)SC2)cc1    1.0

## Task Hey, what did the test say about CC1=C(C(N)=O)C(c2ccc(F)cc2)n2nc(CCCO)nc2N1 (stereo not drawn) ?
## Result 0.0

## Task Each molecule tested received a call. Report the one for "O=C(O)CN1CCN(C(c2ccccc2)c2ccccc2)CC1" .
## Result 0.0

## Task Called result for "Cc1cc(OCC(=O)Nc2c(C)n(C)n(-c3ccccc3)c2=O)ccc1[N+](=O)[O-]"
## Result 0.0

## Task For this molecule, state the assay outcome: Cc1ccc(-c2noc(C3CCCN(C(=O)c4cccc(Cl)c4)C3)n2)o1 (stereo not drawn)
## Result 1.0

## Task // return assay outcome for "Cc1cc(C)c2nc3nc(C)cc(C)c3c(N)c2c1"
## Result 1.0
